- tested_on: GluN2B (Homo sapiens, UniProt Q05586+Q13224)
- Construct: with GluN1 (Q05586)
- Sequence (Q13224 27-1484, other chains not shown): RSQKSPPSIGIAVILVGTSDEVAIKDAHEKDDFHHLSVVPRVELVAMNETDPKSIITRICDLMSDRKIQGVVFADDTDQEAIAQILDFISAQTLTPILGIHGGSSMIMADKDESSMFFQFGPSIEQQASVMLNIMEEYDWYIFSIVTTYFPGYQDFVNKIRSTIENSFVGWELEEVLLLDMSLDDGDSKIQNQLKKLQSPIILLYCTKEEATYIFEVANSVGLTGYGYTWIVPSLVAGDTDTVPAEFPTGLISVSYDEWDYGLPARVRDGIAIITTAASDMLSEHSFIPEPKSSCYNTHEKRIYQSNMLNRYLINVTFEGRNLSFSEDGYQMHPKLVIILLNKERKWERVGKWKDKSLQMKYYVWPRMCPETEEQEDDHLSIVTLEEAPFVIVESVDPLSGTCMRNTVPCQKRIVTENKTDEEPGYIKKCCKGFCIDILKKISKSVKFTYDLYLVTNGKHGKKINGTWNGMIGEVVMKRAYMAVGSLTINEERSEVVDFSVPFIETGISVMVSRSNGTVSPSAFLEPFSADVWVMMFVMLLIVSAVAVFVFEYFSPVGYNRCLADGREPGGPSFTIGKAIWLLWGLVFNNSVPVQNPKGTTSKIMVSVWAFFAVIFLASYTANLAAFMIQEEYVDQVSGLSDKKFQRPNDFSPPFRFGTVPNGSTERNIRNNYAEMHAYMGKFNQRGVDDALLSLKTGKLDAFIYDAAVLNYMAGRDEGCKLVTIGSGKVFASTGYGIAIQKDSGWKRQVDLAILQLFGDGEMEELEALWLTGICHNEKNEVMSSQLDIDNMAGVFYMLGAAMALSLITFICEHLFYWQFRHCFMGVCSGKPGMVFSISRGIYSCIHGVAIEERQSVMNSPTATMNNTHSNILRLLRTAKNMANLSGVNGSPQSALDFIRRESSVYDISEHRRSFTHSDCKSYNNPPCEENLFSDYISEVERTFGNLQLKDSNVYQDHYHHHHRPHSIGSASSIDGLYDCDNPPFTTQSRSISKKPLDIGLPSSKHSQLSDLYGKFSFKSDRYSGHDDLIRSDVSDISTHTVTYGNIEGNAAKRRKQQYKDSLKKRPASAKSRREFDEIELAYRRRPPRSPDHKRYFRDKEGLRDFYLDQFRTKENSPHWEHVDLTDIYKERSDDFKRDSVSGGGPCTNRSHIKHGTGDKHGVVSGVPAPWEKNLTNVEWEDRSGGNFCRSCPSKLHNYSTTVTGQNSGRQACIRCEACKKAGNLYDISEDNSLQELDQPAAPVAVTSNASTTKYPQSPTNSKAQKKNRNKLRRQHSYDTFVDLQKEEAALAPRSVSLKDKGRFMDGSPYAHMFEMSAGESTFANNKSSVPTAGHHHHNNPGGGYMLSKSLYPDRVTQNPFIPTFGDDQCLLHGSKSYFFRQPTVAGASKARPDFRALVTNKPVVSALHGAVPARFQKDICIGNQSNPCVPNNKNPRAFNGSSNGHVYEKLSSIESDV
- assay_remarks: automated patch clamp of HEK293 cells stably expressing human GluN1/GluN2B

| molecule | IC50 |
| --- | --- |
| N[C@H](CCCP(=O)(O)O)C(=O)O [D-APV] | 1140 nM |

====

- Test system: primary mouse cortical neurons
- Construct: primary cortical neurons, DIV 10
- assay_remarks: cells
- Parameters: Protection from NMDA-induced (30 uM, 10 min) neuronal death; Hoechst nuclear morphology by automated microscopy
- assay_setup: Cortical neurone, 20 h, read-out: % inhibition, inhibition of NMDA-induced cell death (protection score), 30 min pre-treatment
Structures can show the parent of a compound that is named as a salt.

| compound | inhibition at 10 µM, % |
| --- | --- |
| C=CC[N+]1([C@H]2C[C@H]3[C@@H]4CC[C@H]5C[C@H](O)[C@@H](N6CCOCC6)C[C@]5(C)[C@H]4CC[C@]3(C)[C@H]2OC(C)=O)CCCC1 [Rocuronium bromide] | -0.727 |
| C#Cc1cccc(Nc2ncnc3cc(OCCOC)c(OCCO)cc23)c1 | -0.167 |
| C#C[C@]1(O)CC[C@H]2[C@@H]3CCc4cc(O)ccc4[C@H]3CC[C@@]21C | 57.3 |
| C[C@H](O)[C@H](O)[C@@H](O)[C@@H](O)C=O [L(+)-Rhamnose Monohydrate] | 0.562 |
| CC1=C(/C=C/C(C)=C/C=C/C(C)=C/C(=O)O)C(C)(C)CCC1 | -38.4 |
| CN(C)CCOc1ccc(/C(=C(/CCCl)c2ccccc2)c2ccccc2)cc1 [Toremifene Citrate (Fareston, Acapodene)] | -2.81 |
| Cc1cn([C@H]2C=C[C@@H](CO)O2)c(=O)[nH]c1=O | 6.33 |
| CNC(=O)c1cc(Oc2ccc(NC(=O)Nc3ccc(Cl)c(C(F)(F)F)c3)cc2)ccn1 | -5.2 |
| COc1ccc(CCC(=O)c2c(O)cc(O[C@@H]3O[C@H](CO)[C@@H](O)[C@H](O)[C@H]3O[C@@H]3O[C@@H](C)[C@H](O)[C@@H](O)[C@H]3O)cc2O)cc1O [Neohesperidin dihydrochalcone (Nhdc)] | -3.39 |
| CCC(=O)NCC[C@@H]1CCc2ccc3c(c21)CCO3 | -3.3 |
| CC[C@]1(O)C[C@H]2CN(CCc3c([nH]c4ccccc34)[C@@](C(=O)OC)(c3cc4c(cc3OC)N(C=O)[C@H]3[C@@](O)(C(=O)OC)[C@H](OC(C)=O)[C@]5(CC)C=CCN6CC[C@]43[C@@H]65)C2)C1 | -7.5 |
| CCOC(=O)C1=C(C)NC(C)=C(C(=O)OC)C1c1cccc(Cl)c1Cl (stereo not shown) | -1.75 |
| COC(=O)[C@@H]1[C@H]2C[C@H]3c4[nH]c5ccccc5c4CCN3C[C@@H]2CC[C@@H]1O [Yohimbine hydrochloride (Antagonil)] | 7.7 |

Hello, the source for this data is paper PMC7489219, in case you need it.
